Procedure summary: in vivo
Measurement setup: female, BALB/c, mouse, iv, 5 mg/kg
Starred links: 1 amine or outer side, 2 acyl side, 3 side chain; linkers in the order of their positions; H or OH if unused. Positions of bridges follow the written chain, without caps; N, C: chain ends. Non-standard residues stand in square brackets, D forms with d. Residues, ends and D or L forms follow the SMILES beside them. *: point of attachment. dAsp(3R-OH) = N[C@@H](C(=O)O)[C@@H](O)C(=O)O; X1 = NC[C@H](O)[C@@H](N[*:1])C(=O)[*:2]; X2 = CCC(C)(O)[C@H](N[*:1])C(=O)[*:2]; d(aIle) = CC[C@H](C)[C@@H](N)C(=O)O; Myristoyl = CCCCCCCCCCCCCC(=O)*; dOrn = NCCC[C@@H](N)C(=O)O; hSer = N[C@@H](CCO)C(=O)O
Readout name: half-life (h)
// units = h; emit number, no label

# input Look up and state reported half-life for CCCCCCCCCCCCCC(=O)N[C@H](CCCN)C(=O)N[C@@H](CO)C(=O)N[C@H](C(=O)N[C@@H](C(=O)N[C@@H](C(=O)N[C@@H]1C(=O)NCC(=O)N[C@@H](C(C)(O)CC)C(=O)N[C@H]([C@@H](C)CC)C(=O)N[C@@H](CCO)C(=O)N[C@@H](C)C(=O)N[C@H]([C@@H](C)CC)C(=O)N[C@@H](CCC(=O)O)C(=O)O[C@@H]1C)[C@@H](O)CN)[C@@H](O)C(=O)O)C(C)C (stereo partly drawn) [Compound 1, Turnercyclamycin A] (Myristoyl-[dOrn]SV[dAsp(3R-OH)][X1]TG[X2][d(aIle)][hSer]A[d(aIle)]E; ester 6-C)
# output 4.35

---

Procedure summary: in vivo
Measurement setup: female, BALB/c, mouse, iv, 5 mg/kg, Mean plasma concentration
Starred links: 1 amine or outer side, 2 acyl side, 3 side chain; linkers in the order of their positions; H or OH if unused. Positions of bridges follow the written chain, without caps; N, C: chain ends. Non-standard residues stand in square brackets, D forms with d. Residues, ends and D or L forms follow the SMILES beside them. *: point of attachment. dAsp(3R-OH) = N[C@@H](C(=O)O)[C@@H](O)C(=O)O; X1 = NC[C@H](O)[C@@H](N[*:1])C(=O)[*:2]; X2 = CCC(C)(O)[C@H](N[*:1])C(=O)[*:2]; d(aIle) = CC[C@H](C)[C@@H](N)C(=O)O; Myristoyl = CCCCCCCCCCCCCC(=O)*; dOrn = NCCC[C@@H](N)C(=O)O; hSer = N[C@@H](CCO)C(=O)O
Readout name: level at 0.05 h (µg/mL)
// units = µg/mL; emit number, no label

# input Look up and state reported level at 0.05 h for CCCCCCCCCCCCCC(=O)N[C@H](CCCN)C(=O)N[C@@H](CO)C(=O)N[C@H](C(=O)N[C@@H](C(=O)N[C@@H](C(=O)N[C@@H]1C(=O)NCC(=O)N[C@@H](C(C)(O)CC)C(=O)N[C@H]([C@@H](C)CC)C(=O)N[C@@H](CCO)C(=O)N[C@@H](C)C(=O)N[C@H]([C@@H](C)CC)C(=O)N[C@@H](CCC(=O)O)C(=O)O[C@@H]1C)[C@@H](O)CN)[C@@H](O)C(=O)O)C(C)C (stereo partly drawn) [Compound 1, Turnercyclamycin A] (Myristoyl-[dOrn]SV[dAsp(3R-OH)][X1]TG[X2][d(aIle)][hSer]A[d(aIle)]E; ester 6-C)
# output 53.3

---

Procedure summary: in vivo
Measurement setup: female, BALB/c, mouse, iv, 5 mg/kg
Starred links: 1 amine or outer side, 2 acyl side, 3 side chain; linkers in the order of their positions; H or OH if unused. Positions of bridges follow the written chain, without caps; N, C: chain ends. Non-standard residues stand in square brackets, D forms with d. Residues, ends and D or L forms follow the SMILES beside them. *: point of attachment. dAsp(3R-OH) = N[C@@H](C(=O)O)[C@@H](O)C(=O)O; X1 = NC[C@H](O)[C@@H](N[*:1])C(=O)[*:2]; X2 = CCC(C)(O)[C@H](N[*:1])C(=O)[*:2]; d(aIle) = CC[C@H](C)[C@@H](N)C(=O)O; Myristoyl = CCCCCCCCCCCCCC(=O)*; dOrn = NCCC[C@@H](N)C(=O)O; hSer = N[C@@H](CCO)C(=O)O
Readout name: AUC(0-inf) (µg·h/mL)
// units = µg·h/mL; emit number, no label

# input Look up and state reported AUC(0-inf) for CCCCCCCCCCCCCC(=O)N[C@H](CCCN)C(=O)N[C@@H](CO)C(=O)N[C@H](C(=O)N[C@@H](C(=O)N[C@@H](C(=O)N[C@@H]1C(=O)NCC(=O)N[C@@H](C(C)(O)CC)C(=O)N[C@H]([C@@H](C)CC)C(=O)N[C@@H](CCO)C(=O)N[C@@H](C)C(=O)N[C@H]([C@@H](C)CC)C(=O)N[C@@H](CCC(=O)O)C(=O)O[C@@H]1C)[C@@H](O)CN)[C@@H](O)C(=O)O)C(C)C (stereo partly drawn) [Compound 1, Turnercyclamycin A] (Myristoyl-[dOrn]SV[dAsp(3R-OH)][X1]TG[X2][d(aIle)][hSer]A[d(aIle)]E; ester 6-C)
# output 290
